Measured protein stability index accompanies every entry in the list below.
B1: USP39 (parent)
chain: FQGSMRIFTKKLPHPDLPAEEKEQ

- Variants of: B1
- Test Summary: protein stability index of a GFP-peptide fusion (GPS, HEK-293T) (PSI 1-6); higher = more stable;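 further: lentivirally expressed fusions sorted by FACS into six bins by GFP to DsRed ratio, PSI derived from sequencing read proportions per bin multiplied by bin number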
- Condition: c terminus: a fixed tail appended
Assay Readout: protein stability index

> print(dat)
              sequence.chain  measured.value
 1  FQGSMRIFTKKLPHPDLPAYEKEQ            1.87
 2  FQGSMRIFTKKLPHPDLPAEEKEF            1.87
 3  FQGSMRIFTKKLPHPDLYAEEKEQ            1.74
 4  FQGSMRIFTKKLNHPDLPAEEKEQ            2.35
 5  FQDSMRIFTKKLPHPDLPAEEKEQ            1.61
 6  FQGSMRIFTKKLPHPQLPAEEKEQ            2.19
 7  FQGSMRIDTKKLPHPDLPAEEKEQ            4.23
 8  FQGSMRIFTKKVPHPDLPAEEKEQ            1.74
 9  FQGSMRIFTKKLPHPDWPAEEKEQ            2.06
10  FQGSMRIFTKKLPHPDLPACEKEQ            2.12
11  FQGDMRIFTKKLPHPDLPAEEKEQ            1.33
12  FQGSMRIFTKKLPHPDLPAEEMEQ            2.32
13  FQGSDRIFTKKLPHPDLPAEEKEQ            2.11
14  FQGSMRIFTKKTPHPDLPAEEKEQ            1.93
15  FQGSMRIFTKKLPHPDLPAEEKGQ            2.21
16  FQGSMRIFTKKLPAPDLPAEEKEQ             1.9
17  FQGSMRIFTKKLPHPDLVAEEKEQ            1.71
18  FQGSMRIFTKKLPHPNLPAEEKEQ            2.37
19  FMGSMRIFTKKLPHPDLPAEEKEQ            3.46
20  FQGSMGIFTKKLPHPDLPAEEKEQ            1.64
21  FIGSMRIFTKKLPHPDLPAEEKEQ            1.78
22  FQGSMRIFTKKLPHPDLPAEEEEQ            2.11
